We begin with a simple list: items and their reported Post-emergence action against LOLRI in %.
- System: Lolium rigidum (LOLRI)
- procedure-text: Post-emergence herbicidal action against LOLRI
- Format: in vivo
- assay-context: dosage 80 g/ha
I only need the number, in %, no unit after it.

compound: COC(=O)CNC(=O)COc1nn(-c2ccccn2)c(-c2ccc(F)nc2)c1Cl [Example I-64]
reading-unit: %
Post-emergence action against LOLRI in %: 80
//
compound: CCOC(=O)COc1nn(-c2ccccn2)c(-c2ccc(F)nc2)c1Cl [Example I-85]
reading-unit: %
Post-emergence action against LOLRI in %: 100
//
compound: COC(=O)[C@@H](C)Oc1nn(-c2ccccn2)c(-c2cncc(F)c2)c1Br [Example I-83]
reading-unit: %
Post-emergence action against LOLRI in %: 90
//
compound: COC(=O)C(C)OC(=O)C(C)Oc1nn(-c2ccccn2)c(-c2ccc(F)nc2)c1Br (centres unmarked) [Example I-288]
reading-unit: %
Post-emergence action against LOLRI in %: 80
//
compound: CCOC(=O)[C@@H](C)Oc1nn(-c2ncccc2F)c(-c2ccc(F)nc2)c1Cl [Example I-32]
reading-unit: %
Post-emergence action against LOLRI in %: 90

**Q:** # returns recorded Post-emergence action against LOLRI in % (system: Lolium rigidum (LOLRI)) for CCOC(=O)[C@@H](C)Oc1nn(-c2ccccn2)c(-c2ccc(F)nc2)c1Br [Example I-91]
**A:** 90

**Q:** Provide the documented Post-emergence action against LOLRI in % with Lolium rigidum (LOLRI) as the system for COC(=O)C(C)NC(=O)[C@@H](C)Oc1nn(-c2ccccn2)c(-c2cncc(F)c2)c1Br (some centres unmarked) [Example I-190]
**A:** 90

**Q:** Under Lolium rigidum (LOLRI): Post-emergence action against LOLRI in % value of COC(=O)[C@@H](C)Oc1nn(-c2ccccn2)c(-c2ccnc(F)c2)c1Cl [Example I-19] ?
**A:** 80
